Values compiled from ChEMBL document CHEMBL1133612.

Tested on: WiDr
protocol-description: Tested for inhibitory activity against a multi drug resistant (MDR) strain of human colon carcinoma WiDr using sulforhodamine B assay (it is MRP positive but non-P-glycoprotein).
Type: functional, cell-based
measured-attribute: pIC50
Please report pIC50 as the negative decimal logarithm of the molar concentration, giving only the number.

Worked cases, answers included:
substance-smiles	system-tested	pIC50
CN(C)CCN1C(=O)c2cc(NC(=O)C(C)(C)C)cc3cc4c(c(c23)C1=O)CCCC4	WiDr	5.82
CN(C)CCN1C(=O)c2cccc3c2c(cc2ccccc23)C1=O	WiDr	6.38
CN(C)CCN1C(=O)c2cccc3cc4c(c(c23)C1=O)CCCC4	WiDr	6.66
CN(C)CCN1C(=O)c2cccc3c2c(cc2cccc(O)c23)C1=O	WiDr	5.64

Alright, here's another compound for you.
Recorded result, CC(=O)Nc1ccc2cc3c(c4c2c1C(=O)N(CCN(C)C)C4=O)CCCC3 , pIC50: 6.62
